# tested_target: 5-HT1AR Y96^2.64A (Homo sapiens, UniProt P08908, Y96A)
# Sequence (P08908 whole entry Y96A): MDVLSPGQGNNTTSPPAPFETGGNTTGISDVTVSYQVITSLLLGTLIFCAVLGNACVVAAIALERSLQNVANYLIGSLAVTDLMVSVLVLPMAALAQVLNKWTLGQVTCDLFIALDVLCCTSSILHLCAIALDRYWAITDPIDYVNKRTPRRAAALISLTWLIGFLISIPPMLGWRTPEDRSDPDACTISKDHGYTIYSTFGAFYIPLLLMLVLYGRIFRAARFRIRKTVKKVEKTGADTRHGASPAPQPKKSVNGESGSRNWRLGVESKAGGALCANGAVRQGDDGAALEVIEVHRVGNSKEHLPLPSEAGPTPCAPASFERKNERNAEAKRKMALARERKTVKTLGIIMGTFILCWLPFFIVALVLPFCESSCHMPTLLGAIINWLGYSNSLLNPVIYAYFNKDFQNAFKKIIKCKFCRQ
# test_name: Radioligand competition, displacement of [3H]WAY100635
# Format: binding
# condition_parameters: 5-HT1AR Y96A; HEK 293T membranes; read-out: Ki [nM ± SEM]
observation_type: Ki (nM)
Your answer should be a plain number; it is taken to be in nM.

// fetch 5-HT1AR Y96^2.64A (Homo sapiens, UniProt P08908, Y96A) Ki for "COc1ccccc1OCCNCCCOc1ccc2c(c1)NC(=O)CO2"
63

* * *

# tested_target: 5-HT1AR F112^3.28W + M92^2.60F (Homo sapiens, UniProt P08908, F112W/M92F)
# Sequence (P08908 whole entry M92F/F112W): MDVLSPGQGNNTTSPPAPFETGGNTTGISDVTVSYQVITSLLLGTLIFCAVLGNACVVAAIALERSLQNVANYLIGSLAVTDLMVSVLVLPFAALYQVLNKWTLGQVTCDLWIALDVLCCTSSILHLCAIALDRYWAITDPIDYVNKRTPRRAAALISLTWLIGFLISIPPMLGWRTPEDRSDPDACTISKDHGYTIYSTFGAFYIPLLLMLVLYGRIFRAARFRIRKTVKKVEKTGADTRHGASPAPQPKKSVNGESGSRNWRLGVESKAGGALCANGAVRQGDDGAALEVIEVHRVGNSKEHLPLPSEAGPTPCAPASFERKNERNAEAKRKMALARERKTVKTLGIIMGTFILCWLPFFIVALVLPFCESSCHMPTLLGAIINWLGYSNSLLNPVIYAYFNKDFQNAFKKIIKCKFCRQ
# test_name: Radioligand competition, displacement of [3H]WAY100635
# Assay type: binding
# condition_parameters: 5-HT1AR F112W + M92F; HEK 293T membranes; read-out: Ki [nM ± SEM]
observation_type: Ki (nM)
Use nM as the unit, but write only the number.

Give its Ki value. Item: "COc1ccccc1OCCNCCCOc1ccc2c(c1)NC(=O)CO2"
0.044
